biological target: N-type calcium channel α1B (Cav2.2), β3 and α2δ subunits (Homo sapiens); assay: Functional assay, antagonism of N-type calcium channel (FDSS calcium mobilization response to KCl depolarization); conditions: HEK stable cell line; 50 mM KCl depolarization; six-point concentration-response
Sequence (Q00975 whole entry): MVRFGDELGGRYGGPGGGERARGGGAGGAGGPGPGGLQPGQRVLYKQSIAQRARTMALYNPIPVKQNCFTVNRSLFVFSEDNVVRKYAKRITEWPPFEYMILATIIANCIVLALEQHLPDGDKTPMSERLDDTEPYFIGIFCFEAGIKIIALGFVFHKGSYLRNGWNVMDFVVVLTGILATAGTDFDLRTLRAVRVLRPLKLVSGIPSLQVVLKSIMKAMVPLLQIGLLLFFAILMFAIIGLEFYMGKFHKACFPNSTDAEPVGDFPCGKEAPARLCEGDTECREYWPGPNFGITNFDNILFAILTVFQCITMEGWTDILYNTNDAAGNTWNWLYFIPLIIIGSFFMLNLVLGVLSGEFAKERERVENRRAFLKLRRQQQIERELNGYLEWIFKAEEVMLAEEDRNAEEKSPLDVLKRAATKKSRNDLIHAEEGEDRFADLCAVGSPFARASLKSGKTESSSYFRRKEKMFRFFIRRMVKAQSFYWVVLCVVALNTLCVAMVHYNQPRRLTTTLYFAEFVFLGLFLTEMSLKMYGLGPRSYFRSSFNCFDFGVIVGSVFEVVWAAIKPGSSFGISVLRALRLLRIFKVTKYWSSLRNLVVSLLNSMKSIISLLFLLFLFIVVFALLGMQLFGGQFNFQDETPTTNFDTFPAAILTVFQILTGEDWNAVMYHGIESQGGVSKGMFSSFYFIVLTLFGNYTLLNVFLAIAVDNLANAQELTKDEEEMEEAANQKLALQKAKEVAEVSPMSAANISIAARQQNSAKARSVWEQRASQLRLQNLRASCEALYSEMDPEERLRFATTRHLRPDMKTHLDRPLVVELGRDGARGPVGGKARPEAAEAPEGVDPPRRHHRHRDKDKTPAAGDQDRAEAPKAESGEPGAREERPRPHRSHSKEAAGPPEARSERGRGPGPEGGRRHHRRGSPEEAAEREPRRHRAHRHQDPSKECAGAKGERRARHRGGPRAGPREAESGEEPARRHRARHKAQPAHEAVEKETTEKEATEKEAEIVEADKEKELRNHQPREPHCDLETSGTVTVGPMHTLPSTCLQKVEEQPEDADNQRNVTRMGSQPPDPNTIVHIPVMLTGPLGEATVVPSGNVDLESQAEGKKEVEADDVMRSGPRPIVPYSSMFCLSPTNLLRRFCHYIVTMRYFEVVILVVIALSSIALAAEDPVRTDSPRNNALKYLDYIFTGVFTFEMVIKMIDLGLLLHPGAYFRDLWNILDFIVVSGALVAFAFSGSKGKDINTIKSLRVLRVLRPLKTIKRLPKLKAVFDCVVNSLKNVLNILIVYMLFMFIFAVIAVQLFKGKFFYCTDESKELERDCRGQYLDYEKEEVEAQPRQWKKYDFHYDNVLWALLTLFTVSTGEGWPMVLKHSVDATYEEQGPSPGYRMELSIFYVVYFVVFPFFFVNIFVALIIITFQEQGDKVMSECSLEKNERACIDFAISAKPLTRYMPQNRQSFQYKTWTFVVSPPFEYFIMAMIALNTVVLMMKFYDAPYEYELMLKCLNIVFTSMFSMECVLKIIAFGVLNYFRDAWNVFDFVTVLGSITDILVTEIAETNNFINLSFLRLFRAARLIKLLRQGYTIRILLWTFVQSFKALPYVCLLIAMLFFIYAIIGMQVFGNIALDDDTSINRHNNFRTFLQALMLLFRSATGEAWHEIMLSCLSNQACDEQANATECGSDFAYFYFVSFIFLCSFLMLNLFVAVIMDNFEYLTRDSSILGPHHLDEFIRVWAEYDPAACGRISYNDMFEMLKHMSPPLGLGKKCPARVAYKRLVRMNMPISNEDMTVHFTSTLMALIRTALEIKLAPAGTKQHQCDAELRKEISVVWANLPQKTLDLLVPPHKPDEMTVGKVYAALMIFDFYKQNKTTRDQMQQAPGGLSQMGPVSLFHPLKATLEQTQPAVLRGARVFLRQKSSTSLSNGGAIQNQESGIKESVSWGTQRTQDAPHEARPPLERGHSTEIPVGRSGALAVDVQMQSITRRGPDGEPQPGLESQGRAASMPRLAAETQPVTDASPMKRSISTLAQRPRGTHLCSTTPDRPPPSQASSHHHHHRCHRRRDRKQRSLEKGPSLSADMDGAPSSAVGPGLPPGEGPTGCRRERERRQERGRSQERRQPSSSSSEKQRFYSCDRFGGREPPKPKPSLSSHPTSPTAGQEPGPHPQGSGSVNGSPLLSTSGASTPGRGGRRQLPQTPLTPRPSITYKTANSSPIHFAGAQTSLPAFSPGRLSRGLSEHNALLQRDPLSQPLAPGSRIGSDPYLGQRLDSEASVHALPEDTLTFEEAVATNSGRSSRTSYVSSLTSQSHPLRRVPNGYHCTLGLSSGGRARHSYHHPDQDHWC
Sequence (P54284 whole entry partner): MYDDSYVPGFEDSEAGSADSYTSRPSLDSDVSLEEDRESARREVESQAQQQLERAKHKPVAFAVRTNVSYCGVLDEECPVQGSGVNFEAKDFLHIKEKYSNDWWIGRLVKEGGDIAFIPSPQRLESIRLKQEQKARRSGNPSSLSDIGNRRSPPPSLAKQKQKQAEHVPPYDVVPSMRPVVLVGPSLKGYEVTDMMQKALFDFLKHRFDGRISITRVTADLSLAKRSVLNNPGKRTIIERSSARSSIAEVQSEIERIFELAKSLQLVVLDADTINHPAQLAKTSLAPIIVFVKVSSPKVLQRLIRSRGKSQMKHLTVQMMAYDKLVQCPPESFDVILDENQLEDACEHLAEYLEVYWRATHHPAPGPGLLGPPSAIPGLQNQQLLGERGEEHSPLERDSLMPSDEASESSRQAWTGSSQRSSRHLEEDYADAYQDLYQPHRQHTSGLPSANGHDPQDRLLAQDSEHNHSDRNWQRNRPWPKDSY
Sequence (P54289 25-956 partner limits assumed): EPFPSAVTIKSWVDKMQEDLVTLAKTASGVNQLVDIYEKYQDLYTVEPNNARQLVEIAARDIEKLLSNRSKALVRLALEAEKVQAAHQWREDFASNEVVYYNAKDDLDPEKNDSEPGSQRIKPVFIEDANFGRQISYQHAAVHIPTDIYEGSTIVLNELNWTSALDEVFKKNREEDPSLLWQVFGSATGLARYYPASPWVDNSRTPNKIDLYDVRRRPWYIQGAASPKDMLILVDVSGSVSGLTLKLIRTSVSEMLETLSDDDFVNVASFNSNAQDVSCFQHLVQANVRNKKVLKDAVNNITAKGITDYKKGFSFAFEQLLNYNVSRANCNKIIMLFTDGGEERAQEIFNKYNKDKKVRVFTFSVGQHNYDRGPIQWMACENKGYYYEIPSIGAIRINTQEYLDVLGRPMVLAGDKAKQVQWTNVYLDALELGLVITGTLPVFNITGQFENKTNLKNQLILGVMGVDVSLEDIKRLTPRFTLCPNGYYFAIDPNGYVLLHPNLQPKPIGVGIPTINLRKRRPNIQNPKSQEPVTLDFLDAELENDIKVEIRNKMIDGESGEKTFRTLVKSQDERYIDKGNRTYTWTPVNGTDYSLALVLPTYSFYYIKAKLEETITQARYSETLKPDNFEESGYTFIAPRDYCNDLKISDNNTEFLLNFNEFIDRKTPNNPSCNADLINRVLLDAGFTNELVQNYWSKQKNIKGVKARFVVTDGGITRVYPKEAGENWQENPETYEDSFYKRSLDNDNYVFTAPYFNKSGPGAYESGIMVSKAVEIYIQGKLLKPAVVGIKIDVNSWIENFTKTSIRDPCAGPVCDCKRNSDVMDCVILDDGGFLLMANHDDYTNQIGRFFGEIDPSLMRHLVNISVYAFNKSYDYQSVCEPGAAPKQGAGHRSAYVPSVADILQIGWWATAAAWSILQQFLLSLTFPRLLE
Sequence (P54289 957-1103 partner limits assumed): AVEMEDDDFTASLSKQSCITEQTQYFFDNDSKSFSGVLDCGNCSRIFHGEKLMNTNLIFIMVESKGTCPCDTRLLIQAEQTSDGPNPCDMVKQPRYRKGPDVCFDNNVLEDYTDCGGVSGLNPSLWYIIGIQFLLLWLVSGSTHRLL
outcome.measure: pIC50
By convention, pIC50 is the negative base-10 log of a molar concentration.

Need pIC50, item COc1ccccc1-n1nc2c(c1-c1ccc(Cl)cc1)CN(S(=O)(=O)Cc1ccccc1)C2 [Cpd 39]
7.57

Need pIC50, item CC(C)CS(=O)(=O)N1Cc2nn(-c3cccc4c3OCO4)c(-c3ccc(Cl)cc3)c2C1 [Cpd 82]
7.55

Need pIC50, item CCCC(C)S(=O)(=O)N1Cc2nn(-c3ccccc3OC)c(-c3ccc(Cl)cc3)c2C1 (centres unmarked) [Cpd 41]
7.72

Need pIC50, item COc1cc(C)ccc1-n1nc2c(c1-c1ccc(Cl)cc1)CN(S(=O)(=O)N1CCC(C)CC1)C2 [Cpd 77]
7.25

Need pIC50, item COc1cc(Cl)ccc1-n1nc2c(c1-c1ccc(Cl)cc1)CN(S(=O)(=O)N(C)C)C2 [Cpd 65]
6.82
